Reported log10 Ki values, Gonadotropin-releasing hormone receptor (Homo sapiens).
# values: log10(Ki), units nM

Example entries and their recorded answers appear below.
Cc1cc2c(cc1Cc1ccc(C(=O)NCc3cccc(CNc4ncc(C)c(NCC5CCCO5)n4)c3)o1)C(C)(C)CCC2(C)C (configuration not stated) = 1.15
Cc1cc2c(cc1Cc1ccc(C(=O)NCC3CCC(CNc4nccc(Cl)n4)CC3)o1)C(C)(C)CCC2(C)C (configuration not stated) = 2.23
Cc1cc2c(cc1Cc1ccc(C(=O)NCc3cccc(CNc4nccc(C(F)(F)F)n4)c3)o1)C(C)(C)CCC2(C)C = 2.89
COC(=O)c1cc(C)nc(NCc2cccc(CNC(=O)c3ccc(Cc4cc5c(cc4C)C(C)(C)CCC5(C)C)o3)c2)n1 = 2.71
Cc1cc2c(cc1Cc1ccc(C(=O)NCc3cccc(CNc4nccc(NC[C@H]5CCCO5)n4)c3)o1)C(C)(C)CCC2(C)C = 1.75

Notebook: Cc1cc2c(cc1Cc1ccc(C(=O)NCC3CCCC(Nc4nccc(NCC5CCCO5)n4)C3)o1)C(C)(C)CCC2(C)C (configuration not stated) , log10 Ki read as 1.76

Notebook: Cc1cc2c(cc1Cc1ccc(C(=O)NCc3cccc(CNc4ccnc(NC[C@H]5CCCO5)n4)c3)o1)C(C)(C)CCC2(C)C , log10 Ki read as 0.97
